TARGET ENTITY: human ether-à-go-go-related gene (hERG) potassium channel (human);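 further: peak tail current of the secondary pulse compared with the same well before compound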
Sequence (Q12809 whole entry, looked up): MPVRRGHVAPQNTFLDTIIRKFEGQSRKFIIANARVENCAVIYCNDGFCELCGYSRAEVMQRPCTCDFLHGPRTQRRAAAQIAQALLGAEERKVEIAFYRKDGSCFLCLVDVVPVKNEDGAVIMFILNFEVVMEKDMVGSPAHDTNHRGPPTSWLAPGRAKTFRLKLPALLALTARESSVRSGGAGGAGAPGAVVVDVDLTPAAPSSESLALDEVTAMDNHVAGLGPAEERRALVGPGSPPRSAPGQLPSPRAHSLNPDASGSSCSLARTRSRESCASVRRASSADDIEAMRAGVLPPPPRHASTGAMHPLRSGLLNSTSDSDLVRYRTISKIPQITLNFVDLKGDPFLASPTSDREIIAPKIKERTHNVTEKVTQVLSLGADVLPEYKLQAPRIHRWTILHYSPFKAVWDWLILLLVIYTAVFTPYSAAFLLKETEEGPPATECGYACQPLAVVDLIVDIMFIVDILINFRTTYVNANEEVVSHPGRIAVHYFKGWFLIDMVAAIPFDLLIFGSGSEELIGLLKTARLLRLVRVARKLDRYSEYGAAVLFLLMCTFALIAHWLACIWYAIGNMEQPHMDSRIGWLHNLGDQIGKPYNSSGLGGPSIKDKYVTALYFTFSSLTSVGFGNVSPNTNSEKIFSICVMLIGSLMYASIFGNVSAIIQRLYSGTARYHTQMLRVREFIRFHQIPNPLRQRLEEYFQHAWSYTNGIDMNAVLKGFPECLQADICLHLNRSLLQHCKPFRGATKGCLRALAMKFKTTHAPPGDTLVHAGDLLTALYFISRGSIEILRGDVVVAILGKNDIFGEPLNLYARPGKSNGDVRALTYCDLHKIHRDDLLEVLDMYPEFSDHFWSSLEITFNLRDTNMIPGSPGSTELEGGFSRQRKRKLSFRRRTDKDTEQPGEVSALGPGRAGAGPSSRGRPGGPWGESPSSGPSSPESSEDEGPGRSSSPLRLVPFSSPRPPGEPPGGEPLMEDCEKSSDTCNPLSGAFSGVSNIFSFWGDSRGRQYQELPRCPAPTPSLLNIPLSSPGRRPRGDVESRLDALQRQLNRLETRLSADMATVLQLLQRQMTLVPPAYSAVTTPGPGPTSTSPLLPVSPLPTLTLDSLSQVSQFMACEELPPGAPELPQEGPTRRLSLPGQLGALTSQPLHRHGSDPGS
TEST NAME: primary screen, population patch clamp on CHO cells stably expressing hERG; higher = less effect of the substance
Out of some 310,000 compounds screened, about 14,000 (4.5%) showed an effect of 50% or more. Effects have a minus sign here. The sample as a whole holds a higher share of strong results than the screen did.
Listed here: items and their measured hERG current change (%, negative = inhibition) at 10uM.
READOUT: hERG current change (%, negative = inhibition) at 10uM

>>> test_value("CCOCCCNC(=O)c1ccc2c(c1)ncn2-c1ccccc1OC")
"-4.39%"
>>> test_value("CCc1ccc(NC(=O)CCn2c(=O)oc3ccccc32)cc1")
"-10.1%"
>>> test_value("CC(=O)c1c(C)n(CCCOC(C)C)c2ccc(O)cc12")
"-30.4%"
>>> test_value("CC1=Nc2ccccc2N=C(NC(=O)/C=C/C(=O)O)C1c1ccccc1 (stereo not shown)")
"2.53%"
>>> test_value("O=C(OCCOc1ccccc1Cl)c1ccc(-n2cnnn2)cc1")
"-19.2%"
>>> test_value("CCn1nc(C)c(CNC(=O)CC2C(=O)NCCN2CC(C)(C)C)c1C (stereo not shown)")
"9.14%"
>>> test_value("COC(CNC(=O)c1ccc2c(c1)ncn2-c1cc(C)cc(C)c1)OC")
"-22.5%"
>>> test_value("COCCCNC(=O)c1ccc2c(c1)ncn2-c1ccccc1OC")
"-1.73%"
>>> test_value("O=C(Nc1ccccc1F)Nc1ccc([N+](=O)[O-])cc1Cl")
"18.4%"
>>> test_value("CC1(C)C(=O)N(c2ccccc2)C(=O)c2ccccc21")
"9.68%"
>>> test_value("CC1CC(C)CN(CCOc2ccc(Cl)cc2Cl)C1.O=C(O)C(=O)O (stereo not shown)")
"-67.3%"
>>> test_value("CCCc1[nH]n(-c2nc3ccccc3s2)c(=O)c1C=NCCCOC")
"-57.2%"
>>> test_value("CCCNC(=O)c1ccc2c(c1)ncn2-c1cc(C)cc(C)c1")
"-55.1%"
>>> test_value("NS(=O)(=O)c1ccc(CCNC(=O)COC(=O)CCSc2ccc(Cl)cc2)cc1")
"-18.5%"
>>> test_value("CCOCCCNC(=O)c1ccc2c(c1)ncn2-c1ccc(CC)cc1")
"-43.8%"
>>> test_value("CC1CN(CCOc2ccc(Cl)cc2Cl)CC(C)O1.O=C(O)C(=O)O (stereo not shown)")
"-24.6%"
>>> test_value("CCCCCN=Cc1c(C)[nH]n(-c2nc3ccccc3s2)c1=O")
"-65.5%"
>>> test_value("CCCN=Cc1c(CCC)[nH]n(-c2nc3ccccc3s2)c1=O")
"-66.9%"
>>> test_value("O=C(O)C(=O)O.c1ccc(-c2ccccc2OCCOCCN2CCNCC2)cc1")
"2.27%"
>>> test_value("Cc1cc(CCCCCCCCc2cc(C)cc(=O)o2)oc(=O)c1")
"-2.63%"
>>> test_value("CCC[C@@H](CNC)NC[C@H](Cc1ccccc1)NCCCCc1ccccc1")
"-6.02%"
>>> test_value("CCn1nc(C)c(CNC(=O)CC2C(=O)NCCN2CC(C)C)c1C (stereo not shown)")
"11.7%"
>>> test_value("CCC(Cc1ccccc1)NC(=O)CN(C)S(=O)(=O)c1ccc2c(c1)c(=O)n(C)c(=O)n2C (stereo not shown)")
"-23.5%"
>>> test_value("CCCc1[nH]n(-c2nc3ccccc3s2)c(=O)c1C=NCC1CCCO1 (stereo not shown)")
"-65.5%"
>>> test_value("CC(=NCc1ccco1)c1c(C)[nH]n(-c2nc3ccccc3s2)c1=O")
"3.78%"

The origin of these recorded values is paper PMC4336329.
